Assay: Cytotoxicity against human WI38 cells assessed as reduction in cell viability measured after 48 hrs by SRB assay
Type: toxicity, cell-based, WI-38
RESULT TYPE: IC50 at 48 h

Below are worked cases with known answers.
{"columns": ["MOLECULE", "IC50 at 48 h"],
 "data": [
  ["C[C@@H]1CC[C@H]2C(C)(COC(=O)CCc3ccccc3)O[C@@H]3O[C@]4(C)CC[C@@H]1[C@]32OO4 (some centres undefined)", "> 100 µM"],
  ["C[C@@H]1CC[C@H]2C(C)(CO)O[C@@H]3O[C@]4(C)CC[C@@H]1[C@]32OO4 (some centres undefined)", "> 100 µM"],
  ["C[C@H]1[C@H](OC(=O)CCC(=O)O)O[C@@H]2O[C@@]3(C)CC[C@H]4[C@H](C)CC[C@@H]1[C@@]24OO3 [ARTESUNATE]", "> 100 µM"]
]}

Here is the next item to consider.
Ask | Entry CC[C@H]1CN2CCc3cc(OC)c(OC)cc3[C@@H]2C[C@@H]1C[C@H]1NCCc2cc(OC)c(OC)cc21 [EMETINE] : reported IC50 at 48 h = ?
Reply | 0.05 µM

* * *

Assay: Selectivity index, ratio of IC50 for CHO cells to IC50 for chloroquine-sensitive asexual erythrocyte stage form Plasmodium falciparum NF54
Type: toxicity, cell-based
Conditions: hamster, read-out: Ratio IC50
The following compounds are listed with their measured selectivity ratio values.

Below are worked cases with known answers.
{"columns": ["COMPOUND", "selectivity ratio"],
 "data": [
  ["C[C@@H]1CC[C@H]2C(C)(COC(=O)c3ccc(F)cc3)O[C@@H]3O[C@]4(C)CC[C@@H]1[C@]32OO4 (some centres undefined)", 27000],
  ["C[C@@H]1CC[C@H]2C(C)(C=O)O[C@@H]3O[C@]4(C)CC[C@@H]1[C@]32OO4 (some centres undefined)", "> 14500"],
  ["CCCC(=O)OCC1(C)O[C@@H]2O[C@]3(C)CC[C@H]4[C@H](C)CC[C@@H]1[C@@]24OO3 (some centres undefined)", "> 5920"]
]}

Here is the next item to consider.
Ask | Entry C[C@H]1[C@@H](O)O[C@@H]2O[C@@]3(C)CC[C@H]4[C@H](C)CC[C@@H]1[C@@]24OO3 [ARTENIMOL] : reported selectivity ratio = ?
Reply | > 45500

* * *

The following compounds are listed with their measured T values.
Assay: Thermal stability of the compound assessed as onset of decomposition temperature by thermogravimetric analysis
Assay type: physicochemical
# answer = value followed by unit

{"columns": ["COMPOUND", "RESULT"],
 "data": [
  ["CC(=O)OCC1(C)O[C@@H]2O[C@]3(C)CC[C@H]4[C@H](C)CC[C@@H]1[C@@]24OO3 (some centres undefined)", "164 °C"],
  ["C[C@@H]1CC[C@H]2C(C)(COC(=O)c3ccc([N+](=O)[O-])cc3)O[C@@H]3O[C@]4(C)CC[C@@H]1[C@]32OO4 (some centres undefined)", "220 °C"],
  ["C[C@@H]1CC[C@H]2C(C)(CO)O[C@@H]3O[C@]4(C)CC[C@@H]1[C@]32OO4 (some centres undefined)", "144 °C"]
]}

Here is the next item to consider.
Ask | Entry C[C@@H]1CC[C@H]2C(C)(COC(=O)[C@@H]3CCCN3C(=O)C(F)(F)F)O[C@@H]3O[C@]4(C)CC[C@@H]1[C@]32OO4 (some centres undefined) : reported T = ?
Reply | 126 °C

* * *

System: UACC-62
Assay: Selectivity index, ratio of IC50 for human WI38 cells to IC50 for human UACC62 cells
Type: functional
The following compounds are listed with their measured Ratio IC50 values.

Below are worked cases with known answers.
{"columns": ["COMPOUND", "Ratio IC50"],
 "data": [
  ["C[C@@H]1CC[C@H]2C(C)(COC(=O)c3ccc(F)cc3)O[C@@H]3O[C@]4(C)CC[C@@H]1[C@]32OO4 (stereo not given in full)", ">8"],
  ["C[C@@H]1CC[C@H]2C(C)(COC(=O)[C@@H]3CCCN3C(=O)C(F)(F)F)O[C@@H]3O[C@]4(C)CC[C@@H]1[C@]32OO4 (stereo not given in full)", 11],
  ["C[C@@H]1CC[C@H]2C(C)(COC(=O)c3ccc(-c4ccccc4)cc3)O[C@@H]3O[C@]4(C)CC[C@@H]1[C@]32OO4 (stereo not given in full)", ">8"],
  ["C[C@@H]1CC[C@H]2C(C)(C=O)O[C@@H]3O[C@]4(C)CC[C@@H]1[C@]32OO4 (stereo not given in full)", ">13"]
]}

Ask | Entry C[C@@H]1CC[C@H]2C(C)(COC(=O)CCc3ccccc3)O[C@@H]3O[C@]4(C)CC[C@@H]1[C@]32OO4 (stereo not given in full) : reported Ratio IC50 = ?
Reply | >1.4

* * *

Experiment: Selectivity index, ratio of IC50 for CHO cells to IC50 for chloroquine-sensitive asexual erythrocyte stage form Plasmodium falciparum NF54
Assay type: toxicity, cell-based
Conditions: hamster, read-out: Ratio IC50
RESULT TYPE: selectivity ratio

{"columns": ["COMPOUND", "selectivity ratio"],
 "data": [
  ["C[C@@H]1CC[C@H]2C(C)(COC(=O)c3cccs3)O[C@@H]3O[C@]4(C)CC[C@@H]1[C@]32OO4 (some centres not stated)", "> 20800"],
  ["C[C@H]1[C@H](OC(=O)CCC(=O)O)O[C@@H]2O[C@@]3(C)CC[C@H]4[C@H](C)CC[C@@H]1[C@@]24OO3 [ARTESUNATE]", "> 12500"],
  ["C[C@@H]1CC[C@H]2C(C)(COC(=O)c3ccc([N+](=O)[O-])cc3)O[C@@H]3O[C@]4(C)CC[C@@H]1[C@]32OO4 (some centres not stated)", "> 14900"]
]}

Ask | Entry CO[C@H]1O[C@@H]2O[C@@]3(C)CC[C@H]4[C@H](C)CC[C@@H]([C@H]1C)[C@@]24OO3 : reported selectivity ratio = ?
Reply | > 26300

Ask | Entry C[C@@H]1CC[C@H]2C(C)(COC(=O)CCc3ccccc3)O[C@@H]3O[C@]4(C)CC[C@@H]1[C@]32OO4 (some centres not stated) : reported selectivity ratio = ?
Reply | > 13500

Ask | Entry CC(=O)OCC1(C)O[C@@H]2O[C@]3(C)CC[C@H]4[C@H](C)CC[C@@H]1[C@@]24OO3 (some centres not stated) : reported selectivity ratio = ?
Reply | > 8920

Ask | Entry Cc1ccsc1C(=O)OCC1(C)O[C@@H]2O[C@]3(C)CC[C@H]4[C@H](C)CC[C@@H]1[C@@]24OO3 (some centres not stated) : reported selectivity ratio = ?
Reply | > 13900

* * *

Assay: Selectivity index, ratio of IC50 for human WI38 cells to IC50 for chloroquine-sensitive asexual erythrocyte stage form Plasmodium falciparum NF54
Format: toxicity, cell-based, WI-38
Conditions: read-out: Ratio IC50
RESULT TYPE: selectivity ratio

Below are worked cases with known answers.
{"columns": ["MOLECULE", "RESULT TYPE", "RESULT"],
 "data": [
  ["C[C@@H]1CC[C@H]2C(C)(COC(=O)c3ccco3)O[C@@H]3O[C@]4(C)CC[C@@H]1[C@]32OO4 (stereo not given in full)", "selectivity ratio", "> 10900"],
  ["CCCCCC(=O)OCC1(C)O[C@@H]2O[C@]3(C)CC[C@H]4[C@H](C)CC[C@@H]1[C@@]24OO3 (stereo not given in full)", "selectivity ratio", "> 1660"],
  ["C[C@@H]1CC[C@H]2C(C)(CO)O[C@@H]3O[C@]4(C)CC[C@@H]1[C@]32OO4 (stereo not given in full)", "selectivity ratio", "> 24400"],
  ["C[C@@H]1CC[C@H]2C(C)(COC(=O)c3ccc(F)cc3)O[C@@H]3O[C@]4(C)CC[C@@H]1[C@]32OO4 (stereo not given in full)", "selectivity ratio", "> 27000"],
  ["CC(=O)Oc1ccccc1C(=O)OCC1(C)O[C@@H]2O[C@]3(C)CC[C@H]4[C@H](C)CC[C@@H]1[C@@]24OO3 (stereo not given in full)", "selectivity ratio", "> 37000"]
]}

Ask | Entry C[C@@H]1CC[C@H]2C(C)(COC(=O)CCc3ccccc3)O[C@@H]3O[C@]4(C)CC[C@@H]1[C@]32OO4 (stereo not given in full) : reported selectivity ratio = ?
Reply | > 13500

Ask | Entry CCCC(=O)OCC1(C)O[C@@H]2O[C@]3(C)CC[C@H]4[C@H](C)CC[C@@H]1[C@@]24OO3 (stereo not given in full) : reported selectivity ratio = ?
Reply | > 5920

Ask | Entry C[C@@H]1CC[C@H]2C(C)(C=O)O[C@@H]3O[C@]4(C)CC[C@@H]1[C@]32OO4 (stereo not given in full) : reported selectivity ratio = ?
Reply | > 14500

Ask | Entry C[C@@H]1CC[C@H]2C(C)(COC(=O)c3ccc(-c4ccccc4)cc3)O[C@@H]3O[C@]4(C)CC[C@@H]1[C@]32OO4 (stereo not given in full) : reported selectivity ratio = ?
Reply | > 13700

Ask | Entry CC(=O)OCC1(C)O[C@@H]2O[C@]3(C)CC[C@H]4[C@H](C)CC[C@@H]1[C@@]24OO3 (stereo not given in full) : reported selectivity ratio = ?
Reply | > 8920
